Test: Therapeutic index, ratio of HC50 for human RBC to MIC for Bacillus subtilis DSM 347
Assay type: toxicity
Conditions: human red blood cells versus Bacillus subtilis DSM 347
RECORDED_METRIC: selectivity ratio
One number for each entry.

Worked examples, 8 compounds total:
C[C@]12SC3=CC1=C1CCCC1=C1C=C(S[C@@]12C)C(=O)[C@H]1CCCN1C(=O)[C@H](CCCCN)NC(=O)[C@H](C12CC4CC(CC(C4)C1)C2)NC(=O)[C@H](CCCN)NC(=O)[C@@H]1CCCN1C(=O)[C@@H](Cc1ccccc1)NC(=O)[C@H](CCCN)NC(=O)[C@H](C12CC4CC(CC(C4)C1)C2)NC(=O)[C@H](CCCN)NC3=O    0.3
CC(C)C[C@@H]1NC(=O)[C@H](CCCNC(=N)N)NC(=O)[C@H](C(C)C)NC(=O)C2=CC3=C4CCCC4=C4C=C(S[C@]4(C)[C@@]3(C)S2)C(=O)[C@H]2CCCN2C(=O)[C@H](CC(C)C)NC(=O)[C@H](CCCNC(=N)N)NC(=O)[C@H](C(C)C)NC(=O)[C@@H]2CCCN2C(=O)[C@@H](Cc2ccccc2)NC1=O    1.7
CC(C)[C@@H]1NC(=O)C2=CC3=C4CCCC4=C4C=C(S[C@]4(C)[C@@]3(C)S2)C(=O)[C@H]2CCCN2C(=O)[C@H](Cc2ccc(O)cc2)NC(=O)[C@H](CCCN)NC(=O)[C@H](C(C)C)NC(=O)[C@@H]2CCCN2C(=O)[C@@H](Cc2ccccc2)NC(=O)[C@H](Cc2ccc(O)cc2)NC(=O)[C@H](CCCN)NC1=O    3.7
Cc1sc2cc1C1=C(CCC1)c1cc(sc1C)C(=O)[C@H]1CCCN1C(=O)[C@H]([C@H](O)C(C)C)NC(=O)[C@H](CCCN)NC(=O)[C@H](C(C)C)NC(=O)[C@@H]1CCCN1C(=O)[C@@H](Cc1ccccc1)NC(=O)[C@H](C(C)C)NC(=O)[C@H](CCCN)NC(=O)[C@H](C(C)C)NC2=O    25
Cc1sc2cc1C1=C(CCC1)c1cc(sc1C)C(=O)[C@H]1CCCN1C(=O)[C@H]([C@@H](C)O)NC(=O)[C@H](C13CC4CC(CC(C4)C1)C3)NC(=O)[C@H](CCCN)NC(=O)[C@@H]1CCCN1C(=O)[C@@H](Cc1ccccc1)NC(=O)[C@H](CCCN)NC(=O)[C@H](C13CC4CC(CC(C4)C1)C3)NC(=O)[C@H](CCCN)NC2=O    2
CC[C@H](C)[C@@H]1NC(=O)c2cc(c(C)s2)C2=C(CCC2)c2cc(sc2C)C(=O)[C@H]2CCCN2C(=O)[C@H](CC(C)C)NC(=O)[C@H](CCCN)NC(=O)[C@H]([C@@H](C)CC)NC(=O)[C@@H]2CCCN2C(=O)[C@H]2CCCN2C(=O)[C@H](CC(C)C)NC(=O)[C@H](CCCN)NC1=O    4
CC(C)C[C@@H]1NC(=O)[C@H](CCCCN)NC(=O)[C@H](C(C)C)NC(=O)[C@@H]2CCCN2C(=O)[C@@H](Cc2ccccc2)NC(=O)[C@H](CC(C)C)NC(=O)[C@H](CCCCN)NC(=O)[C@H](C(C)C)NC(=O)[C@H](CCCCN)NC(=O)C2=CC3=C4CCCC4=C4C=C(S[C@]4(C)[C@@]3(C)S2)C(=O)[C@H]2CCCN2C(=O)[C@H](CCCCN)NC1=O    3.1
Cc1sc2cc1C1=C(CCC1)c1cc(sc1C)C(=O)[C@H]1CCCN1C(=O)[C@H](C)NC(=O)[C@H](CCCN)NC(=O)[C@H](C(C)C)NC(=O)[C@@H]1CCCN1C(=O)[C@@H](Cc1ccccc1)NC(=O)[C@H](CC(C)C)NC(=O)[C@H](CCCN)NC(=O)[C@H](C)NC2=O    12.4

Could you tell me selectivity ratio for each of these compounds? They are listed below.
1. Cc1sc2cc1C1=C(CCC1)c1cc(sc1C)C(=O)[C@H]1CCCN1C(=O)[C@H](C(C)C)NC(=O)[C@H](CCCCN)NC(=O)[C@H](C(C)C)NC(=O)[C@H](CC(C)C)NC(=O)[C@@H](CCCCN)NC(=O)[C@@H]1CCCN1C(=O)[C@@H](Cc1ccccc1)NC(=O)[C@H](C(C)C)NC(=O)[C@H](CCCCN)NC(=O)[C@H](CC(C)C)NC(=O)[C@H](CCCCN)NC(=O)[C@H](C(C)C)NC2=O
2. CCCCN1C(=O)[C@@H](Cc2ccccc2)NC(=O)[C@H](CC(C)C)NC(=O)[C@H](CCCN)NC(=O)[C@H]([C@@H](C)CC)NC(=O)c2cc(c(C)s2)C2=C(CCC2)c2cc(sc2C)C(=O)[C@H]2CCCN2C(=O)[C@H](CC(C)C)NC(=O)[C@H](CCCN)NC(=O)[C@H]([C@@H](C)CC)NC(=O)[C@@H]1CC(C)C

[out]
1. 1
2. 0.3

# batch size: 2; output selectivity ratio per entry
1. Cc1sc2cc1C1=C(CCC1)c1cc(sc1C)C(=O)[C@H]1CCCN1C(=O)[C@H](CC(C)C)NC(=O)[C@H](CCCN)NC(=O)[C@H](C(C)C)NC(=O)[C@@H]1CCCN1C(=O)[C@@H](Cc1ccccc1)NC(=O)[C@H](CC(C)C)NC(=O)[C@H](CCCN)NC(=O)[C@H](CCCN)NC2=O
2. CC(C)C[C@@H]1NC(=O)[C@H](CCCCN)NC(=O)[C@H](C(C)C)NC(=O)C2=CC3=C4CCCC4=C4C=C(S[C@]4(C)[C@@]3(C)S2)C(=O)[C@H]2CCCN2C(=O)[C@H](C(C)C)NC(=O)[C@H](CCCCN)NC(=O)[C@H](C(C)C)NC(=O)[C@H](CC(C)C)NC(=O)[C@@H](CCCCN)NC(=O)[C@@H]2CCCN2C(=O)[C@@H](Cc2ccccc2)NC(=O)[C@H](C(C)C)NC(=O)[C@H](CCCCN)NC1=O

[out]
6
7
